Target: T1, human DR3 (full length, on cells) (human, UniProt Q93038 25-417)
T1 sequence: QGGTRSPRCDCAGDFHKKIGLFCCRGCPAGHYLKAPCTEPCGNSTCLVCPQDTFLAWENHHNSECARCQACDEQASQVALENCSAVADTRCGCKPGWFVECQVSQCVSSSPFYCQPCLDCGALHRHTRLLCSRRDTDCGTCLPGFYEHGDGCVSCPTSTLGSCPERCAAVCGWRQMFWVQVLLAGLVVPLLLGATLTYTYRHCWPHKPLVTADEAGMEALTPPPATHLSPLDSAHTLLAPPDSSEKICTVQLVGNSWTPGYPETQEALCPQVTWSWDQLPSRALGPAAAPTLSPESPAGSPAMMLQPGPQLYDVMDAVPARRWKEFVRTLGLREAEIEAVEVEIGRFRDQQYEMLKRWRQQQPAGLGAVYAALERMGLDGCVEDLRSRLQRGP
Test: cell-based or functional assay
readoutName: IFN-γ, TL1A-costimulated RA SF cells, Fab 1 µg/mL (pg/mL)
Just the number please, in pg/mL, no unit attached.

INSERT INTO assay_data (binder, unitdescriptor, reportedmeasurement) VALUES
  ('0171 (humanized IgG1 Fab of 0072 without back mutations) (Fab, V domains shown) VH: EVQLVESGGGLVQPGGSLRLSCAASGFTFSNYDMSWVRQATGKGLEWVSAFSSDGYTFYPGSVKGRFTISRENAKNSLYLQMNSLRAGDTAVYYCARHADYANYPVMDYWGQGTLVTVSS VL: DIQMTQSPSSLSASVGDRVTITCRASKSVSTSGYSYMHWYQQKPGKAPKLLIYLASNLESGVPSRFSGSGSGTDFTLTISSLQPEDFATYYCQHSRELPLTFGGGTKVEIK', 'pg/mL', 1230),
  ('0173 (humanized IgG1 Fab of 0072; HC T28A S49A Y91S; LC Q3A T5A S60A M4L) (Fab, V domains shown) VH: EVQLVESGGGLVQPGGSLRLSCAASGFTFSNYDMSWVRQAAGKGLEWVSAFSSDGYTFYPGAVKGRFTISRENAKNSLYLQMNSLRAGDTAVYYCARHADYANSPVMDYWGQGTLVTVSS VL: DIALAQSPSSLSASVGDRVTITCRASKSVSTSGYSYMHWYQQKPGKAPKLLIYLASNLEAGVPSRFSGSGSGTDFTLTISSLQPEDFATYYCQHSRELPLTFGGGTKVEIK', 'pg/mL', 1060);

Prompt line: Tell us which IFN-γ, TL1A-costimulated RA SF cells, Fab 1 µg/mL value is on record for 0170 (humanized IgG1 Fab of 0072; HC T28A S49A Y91; LC Q3A T5A S60A M4) (Fab, V domains shown) VH: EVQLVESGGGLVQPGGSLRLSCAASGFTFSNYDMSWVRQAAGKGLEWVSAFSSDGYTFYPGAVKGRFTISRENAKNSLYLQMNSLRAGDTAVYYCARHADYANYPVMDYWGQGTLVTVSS VL: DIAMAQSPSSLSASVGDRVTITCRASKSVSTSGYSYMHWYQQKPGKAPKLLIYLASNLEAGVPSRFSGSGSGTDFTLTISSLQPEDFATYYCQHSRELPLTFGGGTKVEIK
Response line: 1250

Prompt line: Return IFN-γ, TL1A-costimulated RA SF cells, Fab 1 µg/mL for the following binder: 0118 (chimeric Fab of 27F16, human IgG1 constant domain) (Fab, V domains shown) VH: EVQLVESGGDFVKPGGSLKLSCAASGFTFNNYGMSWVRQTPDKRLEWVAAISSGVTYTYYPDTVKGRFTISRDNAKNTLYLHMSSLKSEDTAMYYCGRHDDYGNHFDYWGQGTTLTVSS VL: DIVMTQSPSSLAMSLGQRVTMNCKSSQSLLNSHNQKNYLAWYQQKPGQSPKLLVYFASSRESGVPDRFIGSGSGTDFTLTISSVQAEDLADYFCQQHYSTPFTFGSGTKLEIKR
Response line: 2230
